Recorded measurements of log10(GI50), one per entry
# Method Summary: Growth inhibition of human DU145 cells after 48 hrs by sulforhodamine B assay
# Assay type: functional
# Measurement Conditions: DU-145, 48 h
Please be aware that the numbers have been log10-transformed from GI50 in µM.

Worked cases, log10(GI50) given:
{"Line Notation": "COc1cc(/C(C#N)=C/c2ccc3c(c2)OCCO3)cc(OC)c1OC", "log10(GI50)": -0.89}
{"Line Notation": "COc1ccc(/C=C(\\C#N)c2ccc3c(c2)OCO3)cc1", "log10(GI50)": -0.23}
{"Line Notation": "N#C/C(=C\\c1cc2ccccc2s1)c1ccc2c(c1)OCO2", "log10(GI50)": -0.68}

For this compound ( COc1ccc(/C=C(\C#N)c2ccc3c(c2)OCO3)c2ccccc12 ), measured log10(GI50) is 0.54

For this compound ( COc1ccc(/C(C#N)=C/c2ccc3c(c2)OCCO3)cc1OC ), measured log10(GI50) is 0.67

====

# Method Summary: Growth inhibition of human PC3 cells after 48 hrs by sulforhodamine B assay
# Type: functional
# Measurement Conditions: PC-3, 48 h
Note to self: GI50 under 3 µM means Yes, ties and anything higher get No.

{"Line Notation": "COc1ccc(/C(C#N)=C/c2ccc3c(c2)OCCO3)cc1OC", "Answer Label": "No"}
{"Line Notation": "COc1cc(/C(C#N)=C/c2ccc3c(c2)OCCO3)cc(OC)c1OC", "Answer Label": "Yes"}
{"Line Notation": "N#C/C(=C\\c1cc2ccccc2s1)c1ccc2c(c1)OCO2", "Answer Label": "Yes"}

Now consider a different compound.
State whether 3 µM exceeds GI50 recorded for N#C/C(=C\c1cccc2ccccc12)c1ccc2c(c1)OCO2 .
No

====

Recorded measurements of growth, % of control at 10 µM, one per entry
# Test system: NCI-H322M
# Method Summary: Growth inhibition of human NCI-H322M cells at 10 uM after 48 hrs by sulforhodamine B assay
# Assay type: functional
# Measurement Conditions: values are per cent of control
All answers are understood in %, so give the number only.

{"Line Notation": "COc1ccc(/C(C#N)=C/c2ccc3c(c2)OCCO3)cc1OC", "Endpoint": "growth, % of control at 10 µM", "Unit Descriptor": "%", "Reading": 34.5}

For this compound ( N#C/C(=C\c1cc(Br)cc(Br)c1)c1ccc2c(c1)OCO2 ), measured growth, % of control at 10 µM is 91.4

For this compound ( N#C/C(=C\c1cccnc1Cl)c1ccc2c(c1)OCO2 ), measured growth, % of control at 10 µM is 97

For this compound ( COc1ccc(/C(C#N)=C/c2ccc3c(c2)OCO3)cc1 ), measured growth, % of control at 10 µM is 94.7

====

# Method Summary: Growth inhibition of human Caki1 cells at 10 uM after 48 hrs by sulforhodamine B assay
# Type: functional
# Measurement Conditions: CAKI-1, 48 h, values are per cent of control
Endpoint: growth, % of control at 10 µM (%)
All answers are understood in %, so give the number only.

{"Line Notation": "COc1cc(/C(C#N)=C/c2ccc3c(c2)OCCO3)cc(OC)c1OC", "Reading": 20}
{"Line Notation": "COc1ccc(/C(C#N)=C/c2ccc3c(c2)OCCO3)cc1", "Reading": 64.2}

For this compound ( COc1ccc(/C=C(\C#N)c2ccc3c(c2)OCO3)cn1 ), measured growth, % of control at 10 µM is 75.3
